Tested on: SW-620 colon
Experiment: NCI-60 one-dose screen, 48 h (100 = growth as untreated, 0 = no growth, -100 = all killed)
Details: 10 µM unless noted
This is part of a sample that, as a whole, favours compounds with a hit. Of some 83,000 tested, about 20% had one in any assay. Activity calls are given as the source filed them. Rule for the calls: active = growth percent below 10; inactive = the rest.
Parameter: growth

Some molecules with known growth results, for comparison:
CN1C(=O)/C(=C/c2ccc(C(=O)Nc3ncc(Cc4ccc(F)cc4)s3)cc2)SC1=S: 28.8% (inactive)
N#Cc1c(Nc2ccc(F)cc2)n[nH]c1-c1cccs1: 101% (inactive)

Batch request: growth per item, same order as input.
1. CN(C)c1ccc(/C=C2/C=C(c3ccccc3)OC2=O)cc1
2. O=C(CCCCCCCCC(=O)N/N=C\c1cc(Cl)ccc1O)N/N=C\c1cc(Cl)ccc1O
3. O=c1[nH]c(-c2ccc(Cl)cc2)cn1-c1ccc(-n2cc(-c3ccc(Cl)cc3)[nH]c2=O)cc1

Result:
1: 95.2% (inactive); 2: 46.5% (inactive); 3: 102% (inactive)

###

Tested on: NCI-H322M lung
Experiment: NCI-60 one-dose screen, 48 h (100 = growth as untreated, 0 = no growth, -100 = all killed)
Settings: 10 µM unless noted
About 83,000 compounds went through this panel and 20% of them were active in at least one assay; those are over-represented in the sample as a whole.
Classify on growth using lower bin = under 50%, middle bin = from 50% up to 90%, upper bin = 90% and over

Past entries and their recorded results:
COc1ccc(/C(C)=C(\c2ccc(OCCN3CCCCCC3)cc2)c2ccc(OC(=O)c3ccccc3)cc2)cc1: middle bin
Cn1cc(-c2nc(-c3c[nH]c4ccncc34)cs2)c2cc(Br)ccc21: lower bin

Task: # classify by growth band: "O=C1c2cccnc2C(=O)c2c1c(C(=O)OCCCN1CCCCC1)c1ccccn21"
Result: lower bin

Task: For this compound, which bin applies? "COC(=O)c1ccc2c(c1)c1c(C)c3ccncc3c(C)c1n2C"
Result: lower bin

Task: Could you place "CS(=O)(=O)Nc1cc(-c2ccc3ncnc(Nc4ccc5c(cnn5Cc5cccnc5)c4)c3c2)cnc1Cl" in its proper category? Many thanks.
Result: middle bin

Task: Form field 'band' for "CC/C=C1/C(=O)C=C[C@@H]1C/C=C\CCCC(=O)OC"
Result: upper bin

###

System: 786-0 renal
Test: NCI-60 one-dose screen, 48 h (100 = growth as untreated, 0 = no growth, -100 = all killed)
Conditions: 10 µM unless noted
The panel holds about 83,000 compounds, 20% with a hit somewhere; the sample as a whole holds those more often. The source made the active and inactive calls. The calls were made as follows: active = growth percent below 10; inactive = the rest.
Task for the reader: assign each of the following compounds its reported growth.

Reference set (10 entries):
C[N+](C)(C/C=C/c1ccccc1)Cc1ccccc1: 99.1% (inactive)
Cc1c(N2CN3C[C@H](C)N4CN(c5c(C)n(C)n(-c6ccccc6)c5=O)CN5C[C@@H](C)N(C2)C3C54)c(=O)n(-c2ccccc2)n1C (stereo not given in full): 102% (inactive)
Cc1ccc(-c2nc(C(Cl)Cl)nc3cc(C)nn23)cc1: 81.8% (inactive)
CC1(C)C2CC=C(/C=N/NC(=O)C3CCC(=O)N3)C1C2 (stereo not given): 101% (inactive)
CCOC(=O)c1c(-c2ccc(Cl)cc2)c(C#N)c2c(C#N)c(N)nn2c1N: 82.6% (inactive)
O=C(CN1C(=O)/C(=C/c2ccco2)SC1=S)NCCc1c[nH]c2ccc(F)cc12: 104% (inactive)
O=C(Cn1nnc2ccccc21)N/N=C/c1ccccc1F: 97.5% (inactive)
COc1cccc(/C=C/C(=O)c2cc3c(N)c(C(=O)Nc4cccc(Cl)c4C)sc3nc2C)c1: -43.8% (active)
CN1CCN(c2ccc3c(c2)nc(NNC(=O)c2cnccn2)c2cccn23)CC1: 17.6% (inactive)
COc1ccc(/C(C)=C(\c2ccc(Cl)cc2)c2ccc(OCCN3CCCC3)cc2)cc1: -31.6% (active)

State recorded growth for all listed compounds.
1. COc1ccc(C(O)c2cc3c(N)c(C(=O)Nc4cccc(Cl)c4)sc3nc2C)cc1 (stereo not given)
2. COc1cc(-c2nc3occn3c2-c2ccnc(NCCCNS(=O)(=O)c3ccccc3)n2)ccc1F
3. CCn1cc(CNc2ccc(C(=O)Nc3cc4cc(OC)c(OC)cc4c(C)n3)cc2)c(C)n1
4. COc1cc2c(c(OC)c1OC)C(=O)N[C@@H]1[C@@H](O)[C@@H](O)[C@H](O)C[C@@H]21
5. C#CCOc1ccc2ncnc(Nc3cccc(NC(=O)CCl)c3)c2c1
6. O=c1[nH]c(-c2ccc(Cl)cc2)cn1-c1ccc(-n2cc(-c3ccc(Cl)cc3)[nH]c2=O)cc1

Result:
1. 31.5% (inactive)
2. 63.8% (inactive)
3. 70.9% (inactive)
4. 94.9% (inactive)
5. 72.6% (inactive)
6. 96.4% (inactive)

I'm hoping you can list growth for every compound here, please.
1. N#Cc1nc2c(S(=O)(=O)c3ccccc3)c(N)n(Cc3cccnc3)c2nc1C#N
2. N=c1sc(Cc2cc(Cl)ccc2Cl)cn1CC(=O)c1ccccc1
3. COC(=O)c1nc(-c2ccccc2)oc1S(=O)(=O)N1CCC(C(N)=O)CC1
4. CC(C)(CO)N(CCO)CCO

Result:
106% (inactive)
78.4% (inactive)
51.9% (inactive)
102% (inactive)
